Tested on: DLBCL lines
Experiment: Single-agent sensitivity of lymphoma lines (dose-response, 72 hrs incubation)
Format: cell-based
Details: ABC, GCB, and THL lines; read-out: sensitivity to carfilzomib (range)
Text: Sensitivity to asparaginase and 11 chemotherapeutic agents (carfilzomib, doxorubicin, rapamycin, ibrutinib, cyclophosphamide, prednisolone, metformin, venetoclax, navitoclax, rituximab and vincristine) determined in 8 lymphoma lines, including diffuse large B-cell and Burkitt lymphomas. […] Expression of decisive genes (BCL2, BCL6, BCL2L1, MYC, ASNS) determined in 8 lymphoma lines (FIGS. 11 and 12). […]
Observation Type: IC50

For this molecule ( CC(C)C[C@H](NC(=O)[C@H](CCc1ccccc1)NC(=O)CN1CCOCC1)C(=O)N[C@@H](Cc1ccccc1)C(=O)N[C@@H](CC(C)C)C(=O)[C@@]1(C)CO1 [carfilzomib, reference compound] ), measured IC50 is 1.3 to 7.2 nM
